Species: Rattus norvegicus
Experiment: Inhibition of rat protein farnesyltransferase at 5000 nM
PROPERTY_LABEL: inhibition (%)
One number for each entry, in %.

Examples with answers:
> print(dat)
                                   compound  observed.result
1  COC(=O)N1CCC(CN(C2Cc3cc(C#N)cnc3N(Cc3cncn3C)C2=O)S(=O)(=O)c2cn(C)cn2)CC1 (centres undefined)               85
2  Cn1cnc(S(=O)(=O)NC2Cc3cc(Br)cnc3N(Cc3cncn3C)C2=O)c1 (centres undefined)               51
3  Cn1cnc(S(=O)(=O)N(Cc2ccc(S(C)(=O)=O)cc2)C2Cc3cc(C#N)cnc3N(Cc3cncn3C)C2=O)c1 (centres undefined)               47

Let us examine a further case.
Enquiry: Field request: inhibition | item: Cn1cnc(S(=O)(=O)NC2Cc3cc(C#N)cnc3N(Cc3cncn3C)C2=O)c1 (centres undefined)
Return: 39
